Reported values of IC50 for individual entries
# Tested on: Human Nav1.5 (Homo sapiens, UniProt Q14524)
# Construct: expressed in transfected cells; host or cells: HEK293
# Sequence (Q14524 whole entry): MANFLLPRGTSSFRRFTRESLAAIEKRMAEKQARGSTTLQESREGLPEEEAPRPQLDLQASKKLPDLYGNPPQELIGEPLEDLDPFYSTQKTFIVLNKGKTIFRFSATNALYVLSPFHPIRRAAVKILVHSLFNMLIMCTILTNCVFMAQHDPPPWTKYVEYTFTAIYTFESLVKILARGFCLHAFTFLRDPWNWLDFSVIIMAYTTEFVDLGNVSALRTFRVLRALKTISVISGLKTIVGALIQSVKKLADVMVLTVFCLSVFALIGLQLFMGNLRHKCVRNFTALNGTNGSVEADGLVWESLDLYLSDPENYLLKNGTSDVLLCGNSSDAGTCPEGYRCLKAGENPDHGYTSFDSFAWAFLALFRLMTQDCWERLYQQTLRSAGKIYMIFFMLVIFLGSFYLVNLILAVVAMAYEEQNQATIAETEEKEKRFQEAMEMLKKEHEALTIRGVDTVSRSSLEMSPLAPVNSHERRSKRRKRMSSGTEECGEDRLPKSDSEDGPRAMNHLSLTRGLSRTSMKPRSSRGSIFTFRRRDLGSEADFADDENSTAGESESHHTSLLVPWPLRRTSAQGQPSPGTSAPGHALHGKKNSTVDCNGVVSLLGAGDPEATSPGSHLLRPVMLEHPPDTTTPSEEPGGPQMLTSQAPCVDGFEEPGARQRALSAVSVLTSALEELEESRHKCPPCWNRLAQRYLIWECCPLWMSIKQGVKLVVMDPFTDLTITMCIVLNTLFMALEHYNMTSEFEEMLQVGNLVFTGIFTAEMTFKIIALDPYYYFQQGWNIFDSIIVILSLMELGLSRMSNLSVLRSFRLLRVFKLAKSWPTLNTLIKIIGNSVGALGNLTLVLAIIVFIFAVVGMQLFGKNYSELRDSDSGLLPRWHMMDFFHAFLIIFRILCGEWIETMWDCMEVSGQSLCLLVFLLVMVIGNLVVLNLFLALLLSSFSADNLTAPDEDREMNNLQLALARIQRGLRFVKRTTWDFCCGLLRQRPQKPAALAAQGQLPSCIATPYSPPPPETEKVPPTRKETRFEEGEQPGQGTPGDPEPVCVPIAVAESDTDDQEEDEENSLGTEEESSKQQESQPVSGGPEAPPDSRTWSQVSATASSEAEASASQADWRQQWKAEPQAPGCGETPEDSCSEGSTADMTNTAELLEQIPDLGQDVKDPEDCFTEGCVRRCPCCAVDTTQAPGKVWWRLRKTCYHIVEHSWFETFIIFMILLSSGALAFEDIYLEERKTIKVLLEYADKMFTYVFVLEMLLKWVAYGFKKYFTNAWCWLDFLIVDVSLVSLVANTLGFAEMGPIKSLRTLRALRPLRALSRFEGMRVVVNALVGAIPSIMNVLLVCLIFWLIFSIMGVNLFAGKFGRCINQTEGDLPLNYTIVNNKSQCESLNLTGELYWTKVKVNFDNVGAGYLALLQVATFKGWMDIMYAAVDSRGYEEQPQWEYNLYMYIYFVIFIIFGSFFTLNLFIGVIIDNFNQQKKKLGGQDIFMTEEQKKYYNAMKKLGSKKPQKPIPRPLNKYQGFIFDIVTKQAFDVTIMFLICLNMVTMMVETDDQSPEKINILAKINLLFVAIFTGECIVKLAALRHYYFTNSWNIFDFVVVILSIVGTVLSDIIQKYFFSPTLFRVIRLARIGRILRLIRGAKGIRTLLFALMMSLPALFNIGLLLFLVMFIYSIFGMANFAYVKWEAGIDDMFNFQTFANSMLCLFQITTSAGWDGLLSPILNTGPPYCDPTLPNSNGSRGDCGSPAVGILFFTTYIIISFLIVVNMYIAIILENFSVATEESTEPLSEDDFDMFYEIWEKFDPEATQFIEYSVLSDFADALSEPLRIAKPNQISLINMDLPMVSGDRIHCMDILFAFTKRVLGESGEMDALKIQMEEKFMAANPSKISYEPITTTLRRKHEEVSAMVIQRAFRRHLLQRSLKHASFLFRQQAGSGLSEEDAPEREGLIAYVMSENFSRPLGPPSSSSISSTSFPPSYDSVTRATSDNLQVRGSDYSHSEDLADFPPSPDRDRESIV
# Experimental details: Nav1.5 Assay (VIPR, HEK293 cells)
# Type: cell-based
# Settings: HEK293 cells expressing Human Nav1.5; average of replicates; read-out: Nav1.5 IC50

- Smiles text: "Cn1nccc1C(=O)Nc1ccc(-c2cccc(F)c2Cl)c(N)n1"
  IC50: "> 32 µM"
- Smiles text: "Cn1nccc1C(=O)Nc1ccc(-c2ccccc2C(F)(F)F)c(N)n1"
  IC50: "> 32 µM"
- Smiles text: "Cc1nocc1C(=O)Nc1ccc(-c2ccccc2C(F)F)c(N)n1"
  IC50: "> 32 µM"
